Cited source: patent US20240182446A1

Here the recorded Human Residuals at 60 min (%) is given for each entry.
Test details: In vitro stability in liver microsomes (human)
Format: in vitro ADME
Protocol conditions: compound 1 μM
Report the value in % with no unit label.

Here's what some known entries look like.
[2H]C([2H])([2H])NC(=O)c1nnc(NC(=O)C2CC2)cc1Nc1cccc(-c2ncc(N3CC[C@@H](O)C3)cn2)c1OC [Compound 44-j]	98.44
[2H]C([2H])([2H])NC(=O)c1nnc(NC(=O)C2CC2)cc1Nc1cccc(-c2ncc(-c3cccnc3F)cn2)c1OC [Compound 5-j]	107.15
[2H]C([2H])([2H])NC(=O)c1nnc(NC(=O)C2CC2)cc1Nc1cccc(-c2ncc(N3CCCC3=O)cn2)c1OC [Compound 18-h]	106.77
[2H]C([2H])([2H])NC(=O)c1nnc(NC(=O)C2CC2)cc1Nc1cccc(-c2ncc(-c3cccnc3C(F)(F)F)cn2)c1OC [Compound 6-j]	100.18

Value of measured Human Residuals at 60 min (%) for the entry [2H]C([2H])([2H])NC(=O)c1nnc(NC(=O)C2CC2)cc1Nc1cccc(-c2ncc(-c3ccc(F)nc3)cn2)c1OC [Compound 3-j] : 103.99

Value of measured Human Residuals at 60 min (%) for the entry [2H]C([2H])([2H])NC(=O)c1nnc(NC(=O)C2CC2)cc1Nc1cccc(-c2ncc(-c3ccnn3C)cn2)c1OC [Compound 34-h] : 99.75

* * *

Test details: In vivo pharmacokinetics in mice
Protocol conditions: mouse, po; ICR mice, IG 15 mg/kg, plasma; read-out: Cmax
Endpoint name: Cmax

Value of measured Cmax for the entry `[2H]C([2H])([2H])NC(=O)c1nnc(NC(=O)C2CC2)cc1Nc1cccc(-c2ncc(-c3ccnn3C)cn2)c1OC` : 10200 ng/mL

* * *

Here the recorded Mouse Residuals at 60 min (%) is given for each entry.
Test details: In vitro stability in liver microsomes (mouse)
Assay type: in vitro ADME
Protocol conditions: compound 1 μM
Hi, when you answer, please include the unit after the number. Thanks!

[2H]C([2H])([2H])NC(=O)c1nnc(NC(=O)C2CC2)cc1Nc1cccc(-c2ncc(N3CC[C@@H](O)C3)cn2)c1OC [Compound 44-j]	91.31%
[2H]C([2H])([2H])NC(=O)c1nnc(NC(=O)C2CC2)cc1Nc1cccc(-c2ncc(N3CC[C@H](O)C3)cn2)c1OC [Compound 53-j]	94.17%

Would you kindly look at the next entry?
Value of measured Mouse Residuals at 60 min (%) for the entry [2H]C([2H])([2H])NC(=O)c1nnc(NC(=O)C2CC2)cc1Nc1cccc(-c2ncc(-c3ccc(F)nc3)cn2)c1OC [Compound 3-j] : 99.92%

* * *

Here the recorded Mouse Residuals at 60 min (%) is given for each entry.
Test details: In vitro stability in liver microsomes (mouse)
Format: in vitro ADME
Protocol conditions: compound 1 μM
Description: 300 μL of the final incubation system contained 30 μL of liver microsomes (protein concentration: 5 mg/mL). 30 μL of NADPH+MgCl2, 3 μL of the test compound (in acetonitrile), and 237 μL of PBS buffer (pH 7.4), wherein the proportion of the organic solvent (acetonitrile) was 1% (volume ratio). Samples were prepared in duplicate of 0.30 mL for each specie. Tubes each containing 270 μL of a mixed solution of substrate and enzyme and NADPH were pre-incubated at 37° C. for 5 min. […]
Hi, when you answer, please include the unit after the number. Thanks!

[2H]C([2H])([2H])NC(=O)c1nnc(NC(=O)C2CC2)cc1Nc1cccc(-c2ncc(N3CCCC3=O)cn2)c1OC	94.80%

Value of measured Mouse Residuals at 60 min (%) for the entry `[2H]C([2H])([2H])NC(=O)c1nnc(NC(=O)C2CC2)cc1Nc1cccc(-c2ncc(-c3ccnn3C)cn2)c1OC` : 92.69%

Value of measured Mouse Residuals at 60 min (%) for the entry `[2H]C([2H])([2H])NC(=O)c1nnc(NC(=O)C2CC2)cc1Nc1cccc(-c2ncc(-c3cncnc3C)cn2)c1OC` : 92.35%

Value of measured Mouse Residuals at 60 min (%) for the entry `[2H]C([2H])([2H])NC(=O)c1nnc(NC(=O)C2CC2)cc1Nc1cccc(-c2ncc(-c3cccnc3F)cn2)c1OC` : 99.08%

Value of measured Mouse Residuals at 60 min (%) for the entry [2H]C([2H])([2H])NC(=O)c1nnc(NC(=O)C2CC2)cc1Nc1cccc(-c2ncc(N3CC[C@@H](O)C3)cn2)c1OC [Compound 59-j] : 100.66%

Value of measured Mouse Residuals at 60 min (%) for the entry `[2H]C([2H])([2H])NC(=O)c1nnc(NC(=O)C2CC2)cc1Nc1cccc(-c2ncc(N3CC(O)C3)cn2)c1OC` : 96.42%

* * *

Test details: In vivo pharmacokinetics in mice
Protocol conditions: mouse, po; ICR mice, IG 30 mg/kg, plasma
Endpoint name: half-life (h)
Report the value in h with no unit label.

Value of measured half-life for the entry `[2H]C([2H])([2H])NC(=O)c1nnc(NC(=O)C2CC2)cc1Nc1cccc(-c2ncc(-c3cccnc3F)cn2)c1OC` : 4.48

* * *

Here the recorded Tmax is given for each entry.
Test details: In vivo pharmacokinetics in mice
Protocol conditions: mouse, po; ICR mice, IG 30 mg/kg, plasma
Hi, when you answer, please include the unit after the number. Thanks!

[2H]C([2H])([2H])NC(=O)c1nnc(NC(=O)C2CC2)cc1Nc1cccc(-c2ncc(-c3cccnc3F)cn2)c1OC [Compound 5-j]	30 min

Value of measured Tmax for the entry [2H]C([2H])([2H])NC(=O)c1nnc(NC(=O)C2CC2)cc1Nc1cccc(-c2ncc(-c3cccnc3C(F)(F)F)cn2)c1OC [Compound 6-j] : 30 min

* * *

Test details: In vivo pharmacokinetics in mice
Protocol conditions: mouse, po; ICR mice, IG 30 mg/kg, plasma; read-out: MRT(0-t)
Endpoint name: MRT last (h)
Report the value in h with no unit label.

[2H]C([2H])([2H])NC(=O)c1nnc(NC(=O)C2CC2)cc1Nc1cccc(-c2ncc(-c3cccnc3F)cn2)c1OC [Compound 5-j]	6.26

Value of measured MRT last for the entry [2H]C([2H])([2H])NC(=O)c1nnc(NC(=O)C2CC2)cc1Nc1cccc(-c2ncc(-c3cccnc3C(F)(F)F)cn2)c1OC [Compound 6-j] : 4.74

* * *

Test details: In vivo pharmacokinetics in mice
Protocol conditions: mouse, po; ICR mice, IG 30 mg/kg, plasma; read-out: Cmax
Endpoint name: Cmax (ng/mL)
Report the value in ng/mL with no unit label.

Value of measured Cmax for the entry `[2H]C([2H])([2H])NC(=O)c1nnc(NC(=O)C2CC2)cc1Nc1cccc(-c2ncc(-c3cccnc3F)cn2)c1OC` : 8100
